Target: Recombinant human glycogen synthase kinase 3β (Homo sapiens, UniProt P49841)
Construct: purchased Upstate 14-306
Sequence (P49841 whole entry): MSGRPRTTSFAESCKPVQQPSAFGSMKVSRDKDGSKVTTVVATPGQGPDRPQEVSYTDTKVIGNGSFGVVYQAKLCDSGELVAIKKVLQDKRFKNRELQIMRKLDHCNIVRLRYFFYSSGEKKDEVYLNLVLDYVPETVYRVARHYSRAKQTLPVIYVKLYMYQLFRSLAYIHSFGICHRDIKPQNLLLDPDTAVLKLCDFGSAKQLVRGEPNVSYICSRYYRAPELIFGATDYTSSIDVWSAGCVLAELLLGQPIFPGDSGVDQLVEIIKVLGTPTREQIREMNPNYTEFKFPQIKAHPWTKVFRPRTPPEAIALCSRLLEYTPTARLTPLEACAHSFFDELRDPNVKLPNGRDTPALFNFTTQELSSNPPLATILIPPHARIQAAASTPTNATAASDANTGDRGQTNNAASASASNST
Assay: GSK-3β inhibition (radiometric 33P-ATP, GS-2 peptide substrate)
Type: biochemical
Conditions: 50 μM compound; remaining GSK-3 activity
Experimental: This assay is based on the protocol detailed by Upstate Cat. 14-306, making some slight modifications. Recombinant human glycogen synthase kinase 3β is assayed in MOPS 11 mM pH7.4, EDTA 0.2 mM, EGTA 1.25 mM, MgCl2 26.25 mM and sodium orthovanadate 0.25 mM in the presence of 62.5 μM of Phospho-Glycogen Synthase Peptide-2 (GS-2) (TOCRIS, Cat. 1352), 0.5 μCi γ-^33P-ATP and unlabelled ATP (Sigma, A-9187) at a final concentration of 12.5 μM. […]
Items are presented alongside their recorded % GSK-3 Activity.
Write the value in % as a bare number.

Answered examples (6):
O=C(Cc1cccnc1)Nc1nccs1: 50.90
O=C(CCc1cccnc1)Nc1ncc([N+](=O)[O-])s1: 5.36
O=C(Cc1ccccc1)Nc1ncc([N+](=O)[O-])s1: 8.05
O=C(Cc1cccnc1)Nc1ncc([N+](=O)[O-])s1: 2.78
O=C(Nc1ncc([N+](=O)[O-])s1)c1ccccn1: 43.78
O=C(Cc1ccccn1)Nc1ncc([N+](=O)[O-])s1: 4.1

The molecule `O=C(Cc1cccnc1)Nc1ncc(Cl)s1` showed % GSK-3 Activity equal to 13.8
